- assayTarget: T1, Human BCMA (human, UniProt Q02223 1-54, limits assumed)
- T1 construct: Soluble analyte in SPR; construct not described; also called huBCMA; B-cell maturation antigen
- T1 sequence (looked up): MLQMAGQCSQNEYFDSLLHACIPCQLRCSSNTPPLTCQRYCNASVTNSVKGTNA
- procedureSummary: SPR, IgG immobilised, 37 C
I'd appreciate it if you could supply Kd values for the items below.
Numbers only, in nM.

Consider the worked cases shown below.
L3.PY/L1.FF/H2.YQ (antibody, V domains shown, IgG) VH: EVQLLESGGGLVQPGGSLRLSCAASGFTFGSYAMTWVRQAPGKGLEWVSAISYQGGNTFYADSVKGRFTISRDNSKNTLYLQMNSLRAEDTAVYYCARVSPIASGMDYWGQGTLVTVSS VL: EIVLTQSPGTLSLSPGERATLSCRASQSVSSFFLAWYQQKPGQAPRLLIYGASSRATGIPDRFSGSGSGTDFTLTISRLEPEDFAVYYCQHYPYPPSFTFGQGTKVEIK
0.46
L3.PY/L1.PS/H2.DY (antibody, V domains shown, IgG) VH: EVQLLESGGGLVQPGGSLRLSCAASGFTFGSYAMTWVRQAPGKGLEWVSAIDYSGGNTFYADSVKGRFTISRDNSKNTLYLQMNSLRAEDTAVYYCARVSPIASGMDYWGQGTLVTVSS VL: EIVLTQSPGTLSLSPGERATLSCRASQSVSSSYPSWYQQKPGQAPRLLIYGASSRATGIPDRFSGSGSGTDFTLTISRLEPEDFAVYYCQHYPYPPSFTFGQGTKVEIK
1.12
L3.PY/L1.PH/H3.AQ (antibody, V domains shown, IgG) VH: EVQLLESGGGLVQPGGSLRLSCAASGFTFGSYAMTWVRQAPGKGLEWVSAISGSGGNTFYADSVKGRFTISRDNSKNTLYLQMNSLRAEDTAVYYCARVSPIAAQMDYWGQGTLVTVSS VL: EIVLTQSPGTLSLSPGERATLSCRASQSVSPHYLAWYQQKPGQAPRLLIYGASSRATGIPDRFSGSGSGTDFTLTISRLEPEDFAVYYCQHYPYPPSFTFGQGTKVEIK
0.52
L3.PY/L1.AH/H3.TAQ (antibody, V domains shown, IgG) VH: EVQLLESGGGLVQPGGSLRLSCAASGFTFGSYAMTWVRQAPGKGLEWVSAISGSGGNTFYADSVKGRFTISRDNSKNTLYLQMNSLRAEDTAVYYCTRVSPIAAQMDYWGQGTLVTVSS VL: EIVLTQSPGTLSLSPGERATLSCRASQSVSAHYLAWYQQKPGQAPRLLIYGASSRATGIPDRFSGSGSGTDFTLTISRLEPEDFAVYYCQHYPYPPSFTFGQGTKVEIK
0.37
L3.PY/L3.KY/H2.QR (antibody, V domains shown, IgG) VH: EVQLLESGGGLVQPGGSLRLSCAASGFTFGSYAMTWVRQAPGKGLEWVSAISGSGGNTFYADQRKGRFTISRDNSKNTLYLQMNSLRAEDTAVYYCARVSPIASGMDYWGQGTLVTVSS VL: EIVLTQSPGTLSLSPGERATLSCRASQSVSSSYLAWYQQKPGQAPRLLIYGASSRATGIPDRFSGSGSGTDFTLTISRLEPEDFAVYYCKYYPYPPSFTFGQGTKVEIK
0.34
L3.PY/L3.KF/H2.DY (antibody, V domains shown, IgG) VH: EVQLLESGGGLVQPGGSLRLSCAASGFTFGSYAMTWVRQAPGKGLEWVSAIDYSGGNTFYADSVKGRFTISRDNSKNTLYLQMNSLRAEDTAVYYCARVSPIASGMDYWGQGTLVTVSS VL: EIVLTQSPGTLSLSPGERATLSCRASQSVSSSYLAWYQQKPGQAPRLLIYGASSRATGIPDRFSGSGSGTDFTLTISRLEPEDFAVYYCKFYPYPPSFTFGQGTKVEIK
0.67
L3.PY/L1.PS/H2.QL (antibody, V domains shown, IgG) VH: EVQLLESGGGLVQPGGSLRLSCAASGFTFGSYAMTWVRQAPGKGLEWVSAISGSGGNTFYADQLKGRFTISRDNSKNTLYLQMNSLRAEDTAVYYCARVSPIASGMDYWGQGTLVTVSS VL: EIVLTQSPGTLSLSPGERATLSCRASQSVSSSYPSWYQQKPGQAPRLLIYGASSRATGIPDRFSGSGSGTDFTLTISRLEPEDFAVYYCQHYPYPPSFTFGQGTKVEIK
20.6
L3.PY/H2.QR (antibody, V domains shown, IgG) VH: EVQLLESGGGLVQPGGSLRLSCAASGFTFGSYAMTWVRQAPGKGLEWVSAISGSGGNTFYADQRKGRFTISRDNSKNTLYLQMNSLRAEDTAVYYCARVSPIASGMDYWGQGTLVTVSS VL: EIVLTQSPGTLSLSPGERATLSCRASQSVSSSYLAWYQQKPGQAPRLLIYGASSRATGIPDRFSGSGSGTDFTLTISRLEPEDFAVYYCQHYPYPPSFTFGQGTKVEIK
0.46
L3.PY/L1.PH/H3.AE (antibody, V domains shown, IgG) VH: EVQLLESGGGLVQPGGSLRLSCAASGFTFGSYAMTWVRQAPGKGLEWVSAISGSGGNTFYADSVKGRFTISRDNSKNTLYLQMNSLRAEDTAVYYCARVSPIAAEMDYWGQGTLVTVSS VL: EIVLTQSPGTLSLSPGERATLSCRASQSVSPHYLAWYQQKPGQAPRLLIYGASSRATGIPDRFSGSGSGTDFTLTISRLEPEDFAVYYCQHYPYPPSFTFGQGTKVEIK
0.36

Next item in the queue.
Documented Kd of L3.PY/L1.FF/H2.HA (antibody, V domains shown, IgG) VH: EVQLLESGGGLVQPGGSLRLSCAASGFTFGSYAMTWVRQAPGKGLEWVSAISHAGGNTFYADSVKGRFTISRDNSKNTLYLQMNSLRAEDTAVYYCARVSPIASGMDYWGQGTLVTVSS VL: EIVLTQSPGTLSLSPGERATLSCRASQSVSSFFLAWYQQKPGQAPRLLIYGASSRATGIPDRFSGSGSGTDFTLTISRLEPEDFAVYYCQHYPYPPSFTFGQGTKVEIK : 0.63
